system: CSNK1E; settings: concentration: 1 μM, replicates: in singlicate; n = 1;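 also: KINOMEscan kinase panel screen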
parameter-measured: %Inh (%)
Provide the reading as a plain figure in %.

CC(C)Oc1ccc2c(-c3ccnc(Nc4ccc(N5CCN(C)CC5)cc4)n3)cnn2n1 [GW696155] = 28
Cc1c(Cn2c(C)nn3c(=O)cc(N4CCOC(C)C4)nc23)cccc1C(F)(F)F (stereo not drawn) [GSK2344444] = 0
C[C@@H](Oc1cc(-n2cnc3ccc(NC(=O)NC(C)(C)C)cc32)sc1C(N)=O)c1ccccc1Cl [GSK346294] = 19
CSc1ccc(-c2cc3ncnc(SCC(=O)O)c3s2)cc1 = 0
NS(=O)(=O)c1cccc(-c2ccc3nccc(-c4cccc(S(N)(=O)=O)c4)c3c2)c1 [GW867253] = 12

Kindly review the next compound as well.
Output measured %Inh for this item: Fc1ccc(-c2nn3c(OCC(F)(F)F)cccc3c2-c2ccncc2)cc1 [GW514784] 99

---

test system: PAK4; conditions: concentration: 1 μM, replicates: in singlicate; n = 1
A collection of compounds and their measured %Inh
Express it in %; write the number only.

CN(C(=O)c1ccc(-c2cc(-c3c[nH]nc3-c3ccccn3)ccn2)cc1)C1CCOCC1 = 28
CCc1nc(-c2cccc(C)c2)c(-c2ccnc(NCc3ccccc3)c2)s1 = 22
COCCNC(=O)c1ccc(-c2cc(C(=O)NC3CC3)cc(F)c2C)cc1 = 20
Nc1nc(-c2ccc3c(N)n[nH]c3c2)cc(N2CCCC2)n1 = 0

Supply recorded %Inh for COc1ccc(Nc2nccc(N3CCC(NC(=O)Nc4cc(C)ccc4C)C3)n2)cc1 (stereo not drawn) here. 0

Please look at this compound and report its %Inh: "CN1c2ccc(NCc3ccc(F)cc3)cc2-c2c(cnn2C)S1(=O)=O" 0

---

test system: EPHB2; conditions: concentration: 1 μM, replicates: in singlicate; n = 1
This listing pairs compounds with measured %Inh.
Entry rule: numbers only, all in %.

Worked examples, 8 compounds total:
N#Cc1ccc(-c2cc(-c3c[nH]nc3-c3ccccn3)ccn2)cc1 [GW693028] = 8
CCn1cnc2c(N)ncnc21 [GW345098] = 0
NCC(NC(=O)c1cc(-c2cn[nH]c2)c(-c2ccnc3[nH]ccc23)s1)c1ccccc1.O=C(O)C(F)(F)F.O=C(O)C(F)(F)F (stereo not drawn) [GSK1325775] = 0
O=C(NCCNc1ccnc(Nc2ccc(F)cc2)n1)c1cc2ccccc2s1 [GSK1379874] = 0
[2H]C([2H])(c1cccc(C(F)(F)F)c1C)n1ccn2c(=O)nc(N3CCOCC3)cc12 [GSK2336394] = 0
COc1cc(Nc2nccc(N3CCC(NC(=O)c4cccc(NC(C)=O)c4)C3)n2)cc(OC)c1OC (stereo not drawn) [GSK1379754] = 0
COc1ccc(Nc2ncc(C#N)c(Nc3ccccc3C(N)=O)n2)cc1N1CCN(C)CC1.Cl [GSK1558669] = 59
CN1c2ccc(NCc3ccc(F)cc3)cc2-c2c(cnn2C)S1(=O)=O = 0

Please examine the following record next.
Note down %Inh recorded for COCCNC(=O)c1ccc(-c2cc(C(=O)NC3CC3)cc(F)c2C)cc1 [GW868318] 7

---

system: TAK1; construct: gene MAP3K7; settings: concentration: 1 μM, replicates: in singlicate; n = 1
Form field: %Inh (one value per entry).
Respond numerically; units are % and should not be typed.

CNc1ncnc2[nH]ncc12 [SKF-18355] = 0
C[C@@H](Oc1cc(-n2cnc3ccc(NC(=O)NC(C)(C)C)cc32)sc1C(N)=O)c1ccccc1Cl [GSK346294] = 0
CN(C1=C(c2ccccc2)C(=O)NC1=O)c1ccccc1 [SB-334860] = 18
N#Cc1ccc(-c2cc(-c3c[nH]nc3-c3ccccn3)ccn2)cc1 [GW693028] = 0
O=c1cc(N2CCOCC2)nc2n(Cc3cccc(C(F)(F)F)c3)ccn12 [GSK2297543] = 0
Cn1cc(-c2ccc3c(c2)CCN3C(=O)Cc2ccccc2Cl)c2c(N)ncnc21 [GSK2608885] = 5
COc1ccc(Nc2nccc(N3CCC(NC(=O)Nc4cccc(C(C)=O)c4)C3)n2)cc1 (stereo not shown) [GSK1379731] = 0
O=c1cc(N2CCOCC2)nc2n(Cc3cccc(F)c3)ccn12 [GSK2297430] = 0

Answer with the recorded %Inh of "CCc1nc(-c2cccc(C)c2)c(-c2ccnc(NCc3ccccc3)c2)s1" only. 0

Specify measured %Inh for O=C(Nc1n[nH]c2cc(-c3cccc(F)c3)ccc12)C1CC1 [SB-735464] . 6

Give the measured %Inh for NS(=O)(=O)c1cccc(-c2ccc3ncc(N4CCOCC4)nc3c2)c1 [GSK1535721] 16

Recall and state the measured %Inh for Cc1cn2c(=O)cc(N3CCOCC3)nc2n1Cc1cccc(Cl)c1Cl [GSK2334006] . 0

For the compound "CN1c2ccc(CNc3ccc(F)cc3)cc2-c2c(cnn2C)S1(=O)=O" , give its measured %Inh value. 0

Answer with the recorded %Inh of O=C1NC(=O)C(N2CCc3ccccc32)=C1c1cccc(Cl)c1 [SB-408010] only. 21

Please give the documented %Inh of Cc1nnc(-c2ccc3occ(-c4ccc(C(C)O)cc4)c3c2)o1 (stereo not shown) 25

Provide %Inh value for the following compound: NCC(NC(=O)c1cc(-c2cn[nH]c2)c(-c2ccnc3[nH]ccc23)s1)c1ccccc1.O=C(O)C(F)(F)F.O=C(O)C(F)(F)F (stereo not shown) [GSK1325775] 78

# return recorded %Inh for input c1ccc(-c2n[nH]cc2-c2ccnc3ccccc23)nc1 [GW271431] 50

State its %Inh for this compound: Cc1cccc(Cn2ccn3c(=O)cc(N4CCOCC4)nc23)c1 [GSK2297542] 13

Query %Inh for Cc1cccc(-c2nc(Nc3ccc4ncsc4c3)c3ccccc3n2)n1 [GW867588] 15
